Test system: Pharbitis purpurea
assay.comment: Post-emergence herbicidal action, greenhouse, 320 g/ha
Assay type: in vivo
condition.summary: application rate 320 g/ha, rated visually after about 3 weeks vs untreated controls
Exercise: for every item that follows, state its recorded Pharbitis purpurea (efficacy in %).
Note: a bare number is incomplete; add the unit.

[ask] Answer with Pharbitis purpurea (efficacy in %) of CCC(=O)OC1CCN(C)C(=O)N1c1cc(C(C)(C)C)on1 (centres unmarked) measured for Pharbitis purpurea.
[reply] 100%

[ask] Answer with Pharbitis purpurea (efficacy in %) of CC(=O)OC1CC(C)N(C)C(=O)N1c1cc(C(C)(C)C)on1 (mixture of isomers) measured for Pharbitis purpurea.
[reply] 100%

[ask] Answer with Pharbitis purpurea (efficacy in %) of CCCC(=O)OC1CCN(C)C(=O)N1c1cc(C(C)(C)C)on1 (centres unmarked) measured for Pharbitis purpurea.
[reply] 100%

[ask] Answer with Pharbitis purpurea (efficacy in %) of CN1CCC(OC(=O)C(C)(C)C)N(c2cc(C(C)(C)C)on2)C1=O (centres unmarked) measured for Pharbitis purpurea.
[reply] 90%

[ask] Answer with Pharbitis purpurea (efficacy in %) of CC(=O)OC1CCN(C)C(=O)N1c1cc(C(C)(C)C)on1 (centres unmarked) measured for Pharbitis purpurea.
[reply] 100%
